Data credit: paper PMC9482650

study system: T1, SNTG1, Q9NSN8
T1 sequence (Q9NSN8 52-150, limits assumed, looked up): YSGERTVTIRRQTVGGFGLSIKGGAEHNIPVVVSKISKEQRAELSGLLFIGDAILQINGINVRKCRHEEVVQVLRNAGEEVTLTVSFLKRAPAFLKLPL
test details: holdup assay
Parameters: key: below the threshold = too weak to quantify, mostly under pKd 3.1 to 4
test context: plain residues with an end cap or a label only (N-terminal biotin on a linker: ado-ado)
Below: a set of entries, each annotated with reported pKd.
// return just the number, without any unit appended

• TKEIPNCTSV [SORCS3, Q9UPU3] = 4

Lookup: Bench note: what pKd did ATKDKKITTV [EXOC4, Q96A65] show?
Found: 3.72

Lookup: Bench note: what pKd did THHRKIHTRV [ZNF599, Q96NL3] show?
Found: 3.61
